Study system: Axl (Homo sapiens)
Sequence (P30530 26-894): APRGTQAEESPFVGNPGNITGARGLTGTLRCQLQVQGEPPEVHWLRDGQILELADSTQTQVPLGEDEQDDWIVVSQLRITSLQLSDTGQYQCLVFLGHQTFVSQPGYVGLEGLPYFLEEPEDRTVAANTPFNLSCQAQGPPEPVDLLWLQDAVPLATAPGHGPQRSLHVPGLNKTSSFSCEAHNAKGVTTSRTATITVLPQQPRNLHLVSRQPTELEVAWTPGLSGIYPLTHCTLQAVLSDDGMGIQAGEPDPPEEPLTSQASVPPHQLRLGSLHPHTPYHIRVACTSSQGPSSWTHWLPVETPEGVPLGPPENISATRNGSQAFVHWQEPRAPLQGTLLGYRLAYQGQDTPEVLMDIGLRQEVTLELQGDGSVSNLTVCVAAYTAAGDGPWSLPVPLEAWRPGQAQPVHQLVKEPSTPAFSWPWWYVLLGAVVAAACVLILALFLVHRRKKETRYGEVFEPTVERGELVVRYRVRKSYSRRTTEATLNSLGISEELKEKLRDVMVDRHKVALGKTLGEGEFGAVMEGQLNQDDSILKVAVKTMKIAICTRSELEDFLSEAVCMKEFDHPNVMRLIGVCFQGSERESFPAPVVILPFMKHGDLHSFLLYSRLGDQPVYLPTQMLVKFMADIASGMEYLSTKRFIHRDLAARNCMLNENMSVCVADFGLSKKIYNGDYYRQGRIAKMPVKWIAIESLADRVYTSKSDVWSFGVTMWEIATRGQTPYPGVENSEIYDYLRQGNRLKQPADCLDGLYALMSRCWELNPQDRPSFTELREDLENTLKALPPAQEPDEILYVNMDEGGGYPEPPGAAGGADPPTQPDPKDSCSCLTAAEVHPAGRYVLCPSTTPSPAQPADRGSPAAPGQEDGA
Test: Axl kinase inhibition IC50
Type: biochemical
Stated conditions: Table 3
Measured endpoint: IC50

Recorded results for 5 compounds are shown here.
{"Compound": "CC(C)C(=O)Nc1ccnc(C#Cc2ccc(Nc3ncc(-c4ccc(CN5CCN(C)CC5)cc4)c(N[C@H]4CC[C@H](O)CC4)n3)cc2)c1 [UNC3870A]", "Study system": "Axl (Homo sapiens)", "Measured endpoint": "IC50", "Value observed": "< 10 nM"}
{"Compound": "CN1CCN(Cc2ccc(-c3cnc(Nc4ccc(C#Cc5cc(N)ccn5)cc4)nc3N[C@H]3CC[C@H](O)CC3)cc2)CC1 [UNC3869A]", "Study system": "Axl (Homo sapiens)", "Measured endpoint": "IC50", "Value observed": "1000 to 30000 nM"}
{"Compound": "CC(C)C(=O)Nc1ccnc(C#Cc2ccc(Nc3ncc(-c4ccc(CN5CCN(C)CC5)cc4)c(N[C@H]4CC[C@H](O)CC4)n3)c(F)c2)c1 [UNC4040A]", "Study system": "Axl (Homo sapiens)", "Measured endpoint": "IC50", "Value observed": "100 to 1000 nM"}
{"Compound": "CC(C)C(=O)Nc1ccnc(C#Cc2ccc(Nc3ncc(-c4ccc(CN5CCN(C)CC5)cc4)c(N[C@H]4CC[C@H](O)CC4)n3)c(Cl)c2)c1 [UNC4046A]", "Study system": "Axl (Homo sapiens)", "Measured endpoint": "IC50", "Value observed": "< 10 nM"}
{"Compound": "CN(C)C(=O)c1ccnc(C#Cc2ccc(Nc3ncc(-c4ccccn4)c(N[C@H]4CC[C@H](O)CC4)n3)cc2)c1 [UNC3459A]", "Study system": "Axl (Homo sapiens)", "Measured endpoint": "IC50", "Value observed": "1000 to 30000 nM"}

Query: Provide IC50, system Axl (Homo sapiens), entry CN1CCN(Cc2ccc(-c3cnc(Nc4ccc(C#Cc5cc(NC(=O)C6CCCCC6)ccn5)cc4)nc3N[C@H]3CC[C@H](O)CC3)cc2)CC1 [UNC3873A]
Response: 10 to 100 nM

Query: Provide IC50, system Axl (Homo sapiens), entry CN1CCN(Cc2ccc(-c3cnc(Nc4ccc(C#Cc5cc(NC(=O)C6CCC6)ccn5)cc4)nc3N[C@H]3CC[C@H](O)CC3)cc2)CC1 [UNC3871A]
Response: 10 to 100 nM

Query: Provide IC50, system Axl (Homo sapiens), entry CN1CCN(Cc2ccc(-c3cnc(Nc4ccc(C#Cc5cc(C6OCCO6)ccn5)cc4)nc3N[C@H]3CC[C@H](O)CC3)cc2)CC1 [UNC3437A]
Response: 100 to 1000 nM

Query: Provide IC50, system Axl (Homo sapiens), entry Cc1cc(C#Cc2cc(NC(=O)C(C)C)ccn2)ccc1Nc1ncc(-c2ccc(CN3CCN(C)CC3)cc2)c(N[C@H]2CC[C@H](O)CC2)n1 [UNC4048A]
Response: 100 to 1000 nM

Query: Provide IC50, system Axl (Homo sapiens), entry CC(C)C(=O)Nc1ccnc(C#Cc2ccc(Nc3ncc(-c4ccccc4)c(N[C@H]4CC[C@H](O)CC4)n3)cc2)c1 [UNC4041A]
Response: 100 to 1000 nM

Query: Provide IC50, system Axl (Homo sapiens), entry CC(=O)Nc1ccnc(C#Cc2ccc(Nc3ncc(-c4ccc(CN5CCN(C)CC5)cc4)c(N[C@H]4CC[C@H](O)CC4)n3)cc2)c1 [UNC3874A]
Response: 100 to 1000 nM

Query: Provide IC50, system Axl (Homo sapiens), entry CC(C)C(=O)Nc1ccnc(C#Cc2ccc(Nc3ncc(-c4ccccn4)c(N[C@H]4CC[C@H](O)CC4)n3)cc2)c1 [UNC4042A]
Response: < 10 nM

Query: Provide IC50, system Axl (Homo sapiens), entry Cc1cc(Nc2ncc(-c3ccc(CN4CCN(C)CC4)cc3)c(N[C@H]3CC[C@H](O)CC3)n2)ccc1C#Cc1cc(NC(=O)C(C)C)ccn1 [UNC4044A]
Response: < 10 nM

Data origin, for the record: patent US10526309B2
